- Target entity: TAAR1 (Mus musculus, UniProt Q923Y8)
- Construct: expressed in transfected cells; host or cells: HEK293 cells (ATCC # CRL-1573), stably transfected with pIRESneo2 expression plasmid; membranes prepared
- Sequence (Q923Y8 whole entry): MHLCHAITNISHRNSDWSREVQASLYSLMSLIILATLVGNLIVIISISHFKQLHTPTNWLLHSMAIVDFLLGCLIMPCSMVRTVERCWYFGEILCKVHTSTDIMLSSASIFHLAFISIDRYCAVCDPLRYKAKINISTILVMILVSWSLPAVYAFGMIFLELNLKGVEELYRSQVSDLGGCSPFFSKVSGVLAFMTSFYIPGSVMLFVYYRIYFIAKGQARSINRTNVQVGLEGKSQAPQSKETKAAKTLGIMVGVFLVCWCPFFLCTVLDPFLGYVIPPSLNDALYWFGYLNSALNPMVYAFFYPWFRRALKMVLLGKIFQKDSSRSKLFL
- Assay: Radioligand binding ([3H]-rac-2-(1,2,3,4-tetrahydro-1-naphthyl)-2-imidazoline) on membranes of HEK293 cells stably expressing TAAR1
- Condition info: mouse TAAR1; radioligand at 60 nM, 4° C., 30 min incubation
Listing: log10 of Ki of selected molecules
Record value = log10 of Ki given in µM.

# count of solved cases: 5
INSERT INTO results (molecule, target_entity, property_name, readout_number) VALUES
  ('CN1CCN(c2ccc(C(=O)NCCc3cccc(C(F)(F)F)c3)cn2)CC1 [Example 8]', 'TAAR1 (Mus musculus, UniProt Q923Y8)', 'log10 of Ki', -2.00),
  ('CN1CCN(c2ccc(C(=O)NCc3ccc(Cl)cc3)cn2)CC1 [Example 2]', 'TAAR1 (Mus musculus, UniProt Q923Y8)', 'log10 of Ki', -1.89),
  ('CN1CCN(c2ccc(C(=O)NCc3ccccc3)cn2)CC1 [Example 1]', 'TAAR1 (Mus musculus, UniProt Q923Y8)', 'log10 of Ki', -1.15),
  ('COc1cccc(CCNC(=O)c2ccc(N3CCN(C)CC3)nc2)c1 [Example 10]', 'TAAR1 (Mus musculus, UniProt Q923Y8)', 'log10 of Ki', -1.31),
  ('CN1CCN(c2ccc(C(=O)NCCc3ccccc3)cn2)CC1 [A, reference compound]', 'TAAR1 (Mus musculus, UniProt Q923Y8)', 'log10 of Ki', -1.36);

Consider the record given below.
Q: Tell me the measured log10 of Ki of CN1CCN(c2ncc(C(=O)NCCc3ccc(Cl)cc3)cc2Br)CC1 [Example 31] , please.
Ans: -2.22

Reference source for all entries: patent US8008305B2
